Reported cell viability values follow for various molecules
- Tested on: P12-Ichikawa
- ASSAY INFO: cell viability relative to DMSO control; higher = less cytotoxic
- STATED CONDITIONS: HPLM + 10% dialyzed FBS; 48 h; 0.000781 µM
# output: bare number, implied unit %

Worked cases, cell viability given:
# MOLECULE, TARGET DESC, EXPERIMENTAL VALUE
records = [
    ("COC1=CC=CC=C1C2=CC=CC(=C2)C/3=C(O)/C4=CC(=C(Cl)C=C4NC3=O)C#N", "P12-Ichikawa", 98.4),
    ("ClC1=C(N\\C2=N\\CCN2)C3=NSN=C3C=C1", "P12-Ichikawa", 106),
    ("CC(C)NCC(O)COc1ccc(COCCOC(C)C)cc1 (stereo not given)", "P12-Ichikawa", 115),
    ("C#Cc1cccc(Nc2ncnc3cc(OCCOC)c(OCCOC)cc23)c1", "P12-Ichikawa", 98.2),
    ("CC1=NN(c2ccc(C)c(C)c2)C(=O)/C1=N/Nc1cccc(-c2cccc(C(=O)O)c2)c1O", "P12-Ichikawa", 120),
]

Challenge: Entry NC1(Cc2ccc(Cl)cc2)CCN(c2ncnc3[nH]ccc23)CC1 has what cell viability?
Response given: 105

Reference source: the supplement of paper PMC11451515
